test: Absorption spectrum in ethyl acetate solution (spectrophotometer UV-2400PC); format: physicochemical
Readout type: molar absorption coefficient (ε)

>  <Molecule>
CC1CC(C(C)(C)C)C(OC(=O)c2c(-c3ccccc3)c(C=C3N=C(NC(=O)C(C)(C)C)C(C#N)=C3c3ccccc3)[n]([Zn][OH])c2NC(=O)c2c(F)c(F)c(C(=O)O)c(F)c2F)C(C(C)(C)C)C1 (stereo not shown) [Ib-69]

>  <molar absorption coefficient (ε)>
99,200

$$$$
>  <Molecule>
CC1=C(C(=O)OC2C(C(C)(C)C)CC(C)CC2C(C)(C)C)C(NC(=O)c2ccc(F)c(F)c2)=[N+]2C1=Cc1c(C)c(C(=O)OC3C(C(C)(C)C)CC(C)CC3C(C)(C)C)c(NC(=O)c3ccc(F)c(F)c3)[n]1[Zn-]2[OH] (stereo not shown) [IIa-13]

>  <molar absorption coefficient (ε)>
121,300

$$$$

Give the measured molar absorption coefficient (ε) of CC1CC(C(C)(C)C)C(OC(=O)c2c(-c3ccccc3)c3[n](c2NC(=O)c2cccc(C(F)(F)F)c2)[Zn-]([OH])[N+]2=C(NC(=O)C(C)Sc4cc(C(=O)O)cc(C(=O)O)c4)C(C#N)=C(c4ccccc4)C2=C3)C(C(C)(C)C)C1 (stereo not shown) [Ib-15] .
87,100
